Data provenance is ChEMBL document CHEMBL4311962.

test system: Mycobacterium tuberculosis; experiment: Antimycobacterial activity against multidrug (INH and RIF)-resistant Mycobacterium tuberculosis clinical isolate 1 assessed as inhibition of bacterial growth incubated for 7 days by rapid direct susceptibility test technique; assay type: functional; settings: 168 h
METRIC: MIC (µg/mL)
Write it as a number; the unit µg/mL goes unstated.

Please review the following examples before continuing.
Identify measured MIC associated with `CCOC(=O)c1c(-c2ccc(OC)cc2)oc2ccc(OCCCN3C(=O)C(=O)c4cc(F)ccc43)cc12`
2

Please report MIC for the following molecule: `CCOC(=O)c1c(-c2ccccc2)oc2ccc(OCCCN3C(=O)C(=O)c4ccccc43)cc12`
4

Look up and state reported MIC for `CCOC(=O)c1c(-c2ccccc2)oc2ccc(OCCCCCCN3C(=O)C(=O)c4ccccc43)cc12`
1

Provide only the value of recorded MIC for `CCOC(=O)c1c(-c2ccc(F)cc2)oc2ccc(OCCN3C(=O)C(=O)c4cc(F)ccc43)cc12`
2

Annotate the molecule `CCOC(=O)c1c(-c2ccc(F)cc2)oc2ccc(OCCCN3C(=O)/C(=N/O)c4ccccc43)cc12` with its measured MIC.
8

Respond only with MIC recorded for `CCOC(=O)c1c(-c2ccccc2)oc2ccc(OCCCN3C(=O)C(=O)c4cc(OC)ccc43)cc12`
8

Consider the molecule `CCOC(=O)c1c(-c2ccc(F)cc2)oc2ccc(OCCN3C(=O)C(=O)c4cc(OC)ccc43)cc12` . State its measured MIC.
8

Tell me its MIC given `CCOC(=O)c1c(-c2ccccc2)oc2ccc(OCCCN3C(=O)/C(=N/O)c4cc(OC)ccc43)cc12` as the entry.
16

Here is the next item to consider.
State its MIC for this molecule: `CCOC(=O)c1c(-c2ccc(OC)cc2)oc2ccc(OCCCCCN3C(=O)C(=O)c4ccccc43)cc12`
2

---

test system: Mycobacterium tuberculosis; experiment: Antimycobacterial activity against multidrug (INH and RIF)-resistant Mycobacterium tuberculosis clinical isolate 1 assessed as inhibition of bacterial growth incubated for 7 days by rapid direct susceptibility test technique; type: functional; settings: 168 h
METRIC: MIC (µg/mL)
Give the value, in units of µg/mL, as a plain number.

Answer with the recorded MIC of `CCOC(=O)c1c(-c2ccc(F)cc2)oc2ccc(OCCCCCCN3C(=O)/C(=N\O)c4cc(OC)ccc43)cc12` only.
4

Specify reported MIC for the molecule shown: `CO[C@H]1/C=C/O[C@@]2(C)Oc3c(C)c(O)c4c(O)c(c(/C=N/N5CCN(C)CC5)c(O)c4c3C2=O)NC(=O)/C(C)=C\C=C\[C@H](C)[C@H](O)[C@@H](C)[C@@H](O)[C@@H](C)[C@H](OC(C)=O)[C@@H]1C`
64

Specify reported MIC for the molecule shown: `CCO/N=C1\C(=O)N(CCCCCCOc2ccc3oc(-c4ccc(F)cc4)c(C(=O)OCC)c3c2)c2ccc(OC)cc21`
2

Supply reported MIC belonging to this molecule: `CCOC(=O)c1c(-c2ccccc2)oc2ccc(OCCN3C(=O)C(=O)c4cc(F)ccc43)cc12`
4

Name the recorded MIC of the molecule listed here: `CCOC(=O)c1c(-c2ccc(OC)cc2)oc2ccc(OCCCCN3C(=O)C(=O)c4ccccc43)cc12`
2

Specify MIC for `CCOC(=O)c1c(-c2ccc(F)cc2)oc2ccc(OCCCCCCN3C(=O)/C(=N/OC)c4ccccc43)cc12` and stop.
0.5

# ---- query molecule ----
Return reported MIC. Input molecule: `CCOC(=O)c1c(-c2ccc(F)cc2)oc2ccc(OCCCCCCN3C(=O)C(=O)c4cc(OC)ccc43)cc12`
2
